Quantity Measured: melting point

For record CCCc1cc(=O)oc2c1c1c(c3occc(=O)c32)C=CC(C)(C)O1 the listed melting point is 102 to 104 °C

For record CCCc1cc(=O)oc2c3c(c4c(c12)OC(C)(C)C=C4)OC(CNC(=O)Nc1ccc(F)cc1)CC3=O (stereo not drawn) the listed melting point is 119 to 120.5 °C

For record CCc1c(F)c(=O)oc2c3c(c4c(c12)OC(c1ccccc1)C=C4)OC(C)CC3=O (stereo not drawn) the listed melting point is 109 to 111 °C

For record CCCc1c(Cl)c(=O)oc2c3c(c4c(c12)OC(c1ccccc1)C=C4)OC(C)CC3=O (stereo not drawn) the listed melting point is 152 to 154 °C

For record CCCc1cc(=S)oc2c3c(c4c(c12)OC(C)(C)C=C4)OC(C)CC3=O (stereo not drawn) the listed melting point is 139 to 141 °C

For record CCCc1cc(=O)oc2c(-c3cccn3Cc3ccccn3)c(O)c3c(c12)OC(C)(C)C=C3 the listed melting point is 171 to 173 °C

For record CCCCc1cc(=O)oc2c3c(c4c(c12)OC(CCCC)C=C4)OC(C)CC3=O (stereo not drawn) the listed melting point is 146 to 148 °C

For record CCCCC1C=Cc2c3c(c4oc(=O)c(F)c(CCC)c4c2O1)C(=O)CC(C)O3 (stereo not drawn) the listed melting point is 119 to 121 °C

For record CCCC1C=Cc2c3c(c4oc(=O)cc(CC)c4c2O1)C(=O)CC(C)O3 (stereo not drawn) the listed melting point is 119 to 121 °C

For record C/C=C/C1C=Cc2c3c(c4oc(=O)cc(CCC)c4c2O1)C(=O)C(C)CO3 (stereo not drawn) the listed melting point is 165 to 166 °C

For record CCCc1cc(=O)oc2c3c(c4c(c12)OC(C)(C)C=C4)OC(CN=[N+]=[N-])CC3=O (stereo not drawn) the listed melting point is 116 to 117 °C

For record CCCCCC1CC(=O)c2c(c3c(c4c(CCC)cc(=O)oc24)OC(C)(C)C=C3)O1 (stereo not drawn) the listed melting point is 128 to 131 °C

For record CCCc1c(Cl)c(=O)oc2c3c(c4c(c12)OC(C)C=C4)OC(C)CC3=O (stereo not drawn) the listed melting point is 129 to 131 °C

For record CCCc1cc(=O)oc2c3c(c4c(c12)OCC(C)=C4)OC(C)CC3=O (stereo not drawn) the listed melting point is 127 to 128 °C

For record CC1CC(=O)c2c(c3c(c4c(-c5ccc(N)cc5)cc(=O)oc24)OC(C)(C)C=C3)O1 (stereo not drawn) the listed melting point is 149 to 151 °C

For record CCCCc1cc(=O)oc2c3c(c4c(c12)OC(C)C=C4)OC(C)CC3=O (stereo not drawn) the listed melting point is 128 to 129 °C

For record CCCc1cc(=O)oc2c3c(c4c(c12)OC(C)(C)C=C4)OC1CC1C3=O (stereo not drawn) the listed melting point is 113 to 115 °C

For record CCCCC1C=Cc2c3c(c4oc(=O)cc(CCC)c4c2O1)C(=O)CC(C)O3 (stereo not drawn) the listed melting point is 138 to 139 °C
